Reference source: the supplement of paper PMC8253809

Could you please report measured area under dose-response curve for the items listed next?
system: SUDIPGXIX (diffuse intrinsic pontine glioma line); assay: area under dose-response curve of % growth inhibition (log2 RLU vs DMSO / staurosporine), 1e-11 to 1e-4 M (% x log10 M); higher = more growth inhibition
Answers are plain numbers.

The following compounds have reported results that may help.
CC(C)(C)c1nc(-c2cccc(NS(=O)(=O)c3c(F)cccc3F)c2F)c(-c2ccnc(N)n2)s1: 0
CC[C@@]1(O)C(=O)OCc2c1cc1n(c2=O)Cc2cc3c(CN(C)C)c(O)ccc3nc2-1: 267

Field: area under dose-response curve. Fill in for each record below.
1. N[C@H]1C[C@@H]1c1ccc(-c2cccc(O)c2)cc1
2. Cc1c(C2CCN(CCc3ccccc3)CC2)noc1-c1ccc(Cl)cc1
3. O=C(Nc1ccccc1-c1cn2c(CN3CCNCC3)csc2n1)c1cnc2ccccc2n1
4. Cc1ccc(C(=O)Nc2ccc(CN3CCN(C)CC3)c(C(F)(F)F)c2)cc1C#Cc1cnc2cccnn12
5. C[C@@H](Oc1cc(-c2cnn(C3CCNCC3)c2)cnc1N)c1c(Cl)ccc(F)c1Cl
6. COc1ccc(Cn2ccc3ccc(C(=O)NO)cc32)cc1
7. COC(=O)[C@]12CCC(C)(C)C[C@H]1[C@H]1C(=O)C=C3[C@@]4(C)C=C(C#N)C(=O)C(C)(C)[C@@H]4CC[C@@]3(C)[C@]1(C)CC2
8. CCCCc1oc2ccc(NS(C)(=O)=O)cc2c1C(=O)c1ccc(OCCCN(CCCC)CCCC)cc1

Found:
1: 222; 2: 22.6; 3: 139; 4: 132; 5: 123; 6: 24.5; 7: 207; 8: 137

// batch mode: one area under dose-response curve value per listed entry
1. CC(=O)OC[C@H]1O[C@@H]([S-])[C@H](OC(C)=O)[C@@H](OC(C)=O)[C@@H]1OC(C)=O.CCP(CC)CC.[Au+]
2. CCOc1cc(C(C)(C)C)ccc1C1=N[C@@](C)(c2ccc(Cl)cc2)[C@@](C)(c2ccc(Cl)cc2)N1C(=O)N1CCN(CCCS(C)(=O)=O)CC1
3. C[C@@H]1O[C@@H](O[C@H]2C[C@@H](O)[C@]3(CO)[C@H]4[C@H](O)C[C@]5(C)[C@@H](C6=CC(=O)OC6)CC[C@]5(O)[C@@H]4CC[C@]3(O)C2)[C@H](O)[C@H](O)[C@H]1O
4. O=C(Nc1c[nH]nc1-c1nc2ccc(CN3CCOCC3)cc2[nH]1)NC1CC1
5. COc1cc(F)ccc1-c1ncnc(Nc2cccc(CS(C)(=N)=O)c2)n1 (configuration not stated)
6. CCOC(=O)CCNc1cc(N2CCc3ccccc3CC2)nc(-c2ccccn2)n1

Found:
[219, 204, 202, 184, 156, 104]

Looking up Cc1[nH]c2ccccc2c1CCNCc1ccc(/C=C/C(=O)NO)cc1 , I found its area under dose-response curve recorded as 293
